This collection of values is drawn from ChEMBL document CHEMBL1128498.

System: HeLa
Test: Inhibition of HeLa S3 cell growth relative to mitomycin C action (ratio of IC50 values)
Format: functional, Homo sapiens
ENDPOINT NAME: IC50 ratio
Reply with just the number.

COC1=C(Cl)C(=O)C2=C(C1=O)[C@@H](COC(N)=O)[C@@]1(OC)[C@H]3N[C@H]3CN21; 2.5

Now examine the next entry.
Request: // returns reported IC50 ratio for input CO[C@@]12[C@H](COC(N)=O)C3=C(C(=O)C(Cl)=C(N)C3=O)N1C[C@@H]1N[C@@H]12
Response: 0.37

* * *

Test system: HeLa
Experiment: Inhibition of HeLa S3 cell growth relative to mitomycin C action (ratio of IC50 values)
Type: functional, Homo sapiens
ENDPOINT NAME: IC50 ratio

Request: Given COC1=C(C)C(=O)C2=C(C1=O)[C@H](COC(N)=O)[C@@]1(O)[C@@H]3[C@H](CN21)N3C (some centres undefined) , state its recorded IC50 ratio.
Response: 0.29

Request: Bench note: what IC50 ratio did CO[C@@]12[C@H](COC(N)=O)C3=C(C(=O)C(C)=C(N)C3=O)N1C[C@H]1[C@@H]2N1C (some centres undefined) show?
Response: 9.5

Request: Please report the recorded IC50 ratio for CO[C@@]12[C@H](COC(N)=O)C3=C(C(=O)C=C(N)C3=O)N1C[C@H]1[C@@H]2N1C (some centres undefined) .
Response: 16

Request: Reported IC50 ratio for CN1[C@H]2[C@@H]1CN1C3=C(C(=O)C(N)=C(Cl)C3=O)[C@H](COC(N)=O)[C@@]21O (some centres undefined) : what is it?
Response: >20

* * *

Species: Mus musculus
Assay: T/C value was measured as tumor volume in the treated versus control mice.
Assay type: functional
T/C vs 0.2: at or above is Fulfilled, below is Not fulfilled.

Worked cases, answers included:
CN1[C@H]2[C@@H]1CN1C3=C(C(=O)C(N)=C(Cl)C3=O)[C@H](COC(N)=O)[C@@]21O (some centres not stated); Fulfilled
COC1=C(Br)C(=O)C2=C(C1=O)[C@@H](COC(N)=O)[C@@]1(OC)[C@@H]3[C@H](CN21)N3C (some centres not stated); Fulfilled
CO[C@@]12[C@H](COC(N)=O)C3=C(C(=O)C(Cl)=C(N)C3=O)N1C[C@H]1[C@@H]2N1C (some centres not stated); Not fulfilled
CO[C@@]12[C@H](COC(N)=O)C3=C(C(=O)C(C)=C(N)C3=O)N1C[C@@H]1N[C@@H]12 [MITOMYCIN]; Fulfilled

Request: Given CN1[C@H]2[C@@H]1CN1C3=C(C(=O)C(N)=CC3=O)[C@H](COC(N)=O)[C@@]21O (some centres not stated) , state whether its T/C is at least 0.2.
Response: Fulfilled

Request: Reported T/C at or above 0.2? CO[C@@]12[C@H](COC(N)=O)C3=C(C(=O)C(C)=C(N)C3=O)N1C[C@H]1[C@@H]2N1C (some centres not stated) [PORFIROMYCIN]
Response: Fulfilled

* * *

Tested on: HeLa
Experiment: Inhibition of HeLa S3 cell growth relative to mitomycin C action (ratio of IC50 values)
Format: functional, Homo sapiens
Would you mind classing the entries by IC50 ratio? Ranges: small value = under 0.5, mid value = from 0.5 up to 2, large value = 2 and over

Request: Hi there! Could you help me figure out the category for COC1=C(Br)C(=O)C2=C(C1=O)[C@@H](COC(N)=O)[C@@]1(OC)[C@@H]3[C@H](CN21)N3C (stereo not given in full) please?
Response: large value

Request: Where would CC1=C(N)C(=O)C2=C(C1=O)N1C[C@H]3[C@H](N3C)[C@]1(O)[C@H]2COC(N)=O (stereo not given in full) land among the classes by reported IC50 ratio?
Response: large value

Request: Please indicate the class for COC1=C(C)C(=O)C2=C(C1=O)[C@@H](COC(N)=O)[C@@]1(OC)[C@H]3N[C@H]3CN21 based on its IC50 ratio.
Response: small value

* * *

Species on record: Mus musculus
Assay: T/C value was measured as tumor volume in the treated versus control mice.
Type: functional
The label condition met is reserved for T/C strictly under 0.4; condition not met covers values equal to or above it.

Observe how each entry below is paired with its result.
CO[C@@]12[C@H](COC(N)=O)C3=C(C(=O)C=C(N)C3=O)N1C[C@@H]1N[C@@H]12; condition met
COC1=C(Br)C(=O)C2=C(C1=O)[C@@H](COC(N)=O)[C@@]1(OC)[C@H]3N[C@H]3CN21; condition not met
COC1=CC(=O)C2=C(C1=O)[C@@H](COC(N)=O)[C@@]1(OC)[C@H]3N[C@H]3CN21; condition not met
COC1=C(Cl)C(=O)C2=C(C1=O)[C@H](COC(N)=O)[C@@]1(O)[C@@H]3[C@H](CN21)N3C (some centres undefined); condition not met
CO[C@@]12[C@H](COC(N)=O)C3=C(C(=O)C=C(N)C3=O)N1C[C@H]1[C@@H]2N1C (some centres undefined); condition met

Request: Is 0.4 strictly greater than the compound's reported T/C? compound: CN1[C@H]2[C@@H]1CN1C3=C(C(=O)C(N)=C(Br)C3=O)[C@H](COC(N)=O)[C@@]21O (some centres undefined)
Response: condition not met

Request: T/C under 0.4? Item: COC1=C(Br)C(=O)C2=C(C1=O)[C@H](COC(N)=O)[C@@]1(O)[C@@H]3[C@H](CN21)N3C (some centres undefined)
Response: condition not met

* * *

Test system: HeLa
Assay: Inhibition of HeLa S3 cell growth relative to mitomycin C action (ratio of IC50 values)
Assay type: functional, Homo sapiens
The following molecules are shown together with reported IC50 ratio values.

Here's what some known entries look like.
CO[C@@]12[C@H](COC(N)=O)C3=C(C(=O)C(C)=C(N)C3=O)N1C[C@@H]1N[C@@H]12 [MITOMYCIN]; 0.49
COC1=CC(=O)C2=C(C1=O)[C@H](COC(N)=O)[C@@]1(O)[C@@H]3[C@H](CN21)N3C (some centres not stated); 16
COC1=C(Br)C(=O)C2=C(C1=O)[C@@H](COC(N)=O)[C@@]1(OC)[C@H]3N[C@H]3CN21; 1.9
CO[C@@]12[C@H](COC(N)=O)C3=C(C(=O)C=C(N)C3=O)N1C[C@@H]1N[C@@H]12; 3.2
CN1[C@H]2[C@@H]1CN1C3=C(C(=O)C(N)=CC3=O)[C@H](COC(N)=O)[C@@]21O (some centres not stated); >71
COC1=CC(=O)C2=C(C1=O)[C@@H](COC(N)=O)[C@@]1(OC)[C@H]3N[C@H]3CN21; 0.3
COC1=C(Cl)C(=O)C2=C(C1=O)[C@H](COC(N)=O)[C@@]1(O)[C@@H]3[C@H](CN21)N3C (some centres not stated); 11
COC1=C(C)C(=O)C2=C(C1=O)[C@@H](COC(N)=O)[C@@]1(OC)[C@@H]3[C@H](CN21)N3C (some centres not stated) [N-METHYL-MITOMYCIN A]; <0.031
COC1=CC(=O)C2=C(C1=O)[C@@H](COC(N)=O)[C@@]1(OC)[C@@H]3[C@H](CN21)N3C (some centres not stated); 0.29
CO[C@@]12[C@H](COC(N)=O)C3=C(C(=O)C(Br)=C(N)C3=O)N1C[C@H]1[C@@H]2N1C (some centres not stated); 1.9

Request: Using the record for CO[C@@]12[C@H](COC(N)=O)C3=C(C(=O)C(Cl)=C(N)C3=O)N1C[C@H]1[C@@H]2N1C (some centres not stated) , report its IC50 ratio.
Response: 0.76

Request: State the recorded IC50 ratio for this entry: COC1=C(Br)C(=O)C2=C(C1=O)[C@H](COC(N)=O)[C@@]1(O)[C@@H]3[C@H](CN21)N3C (some centres not stated)
Response: >3.7

* * *

Species on record: Mus musculus
Assay: T/C value was measured as tumor volume in the treated versus control mice.
Type: functional
Listed here: items and their measured T/C.
Number, no unit, nothing else.

Consider the reported T/C for these compounds:
COC1=C(C)C(=O)C2=C(C1=O)[C@H](COC(N)=O)[C@@]1(O)[C@@H]3[C@H](CN21)N3C (some centres not stated); 0.37
CC1=C(N)C(=O)C2=C(C1=O)N1C[C@H]3[C@H](N3C)[C@]1(O)[C@H]2COC(N)=O (some centres not stated); 0.59
CO[C@@]12[C@H](COC(N)=O)C3=C(C(=O)C(Br)=C(N)C3=O)N1C[C@H]1[C@@H]2N1C (some centres not stated); 0.63

Request: # lookup: T/C of COC1=CC(=O)C2=C(C1=O)[C@H](COC(N)=O)[C@@]1(O)[C@@H]3[C@H](CN21)N3C (some centres not stated)
Response: 0.31

Request: Entry COC1=C(C)C(=O)C2=C(C1=O)[C@@H](COC(N)=O)[C@@]1(OC)[C@@H]3[C@H](CN21)N3C (some centres not stated) has what T/C?
Response: 0.32

Request: # query: T/C of entry COC1=CC(=O)C2=C(C1=O)[C@@H](COC(N)=O)[C@@]1(OC)[C@@H]3[C@H](CN21)N3C (some centres not stated)
Response: 0.36

Request: Which T/C is listed for CO[C@@]12[C@H](COC(N)=O)C3=C(C(=O)C(Cl)=C(N)C3=O)N1C[C@@H]1N[C@@H]12 ?
Response: 0.14
